Test system: A549, Caco-2, HT-1080, PC-3, OVCAR-3, MDA-MB-231, WM115
Experiment: MTS viability, all cancer cell lines tested (summary)
Type: cell-based, human
Conditions: Homo sapiens, read-out: concentration decreasing cell viability by 50% (IC50), cancer cell lines of Table III
Counter-ions that a name gives are not always drawn.
REPORTED_METRIC: IC50

INPUT: Any idea what IC50 was measured for N=C(N)[Se]CCc1ccc(CC[Se]C(=N)N)cc1 [PBISe, dihydrobromide] ?
OUTPUT: 8 to 10 µM

* * *

Test system: 1205Lu melanoma cell line
Test: MTS cell viability assay, 1205Lu
Format: cell-based
Settings: 1205Lu melanoma; 24 hours treatment; MTS; read-out: IC50, 1205Lu (Table I)
REPORTED_METRIC: IC50

INPUT: Any idea what IC50 was measured for Br.Br.N=C(N)SCCc1ccc(CCSC(=N)N)cc1 [PBIT, dihydrobromide, reference compound] ?
OUTPUT: > 100 µM

* * *

Test system: OVCAR-3 ovarian carcinoma cells
Experiment: MTS cell viability assay, OVCAR-3
Type: cell-based, human
Conditions: Homo sapiens, OVCAR-3, 24 h, read-out: Inhibition Cancer Cells IC50, OVCAR-3 (Table III)
Counter-ions that a name gives are not always drawn.
REPORTED_METRIC: IC50 (µM)
Write the value in µM as a bare number.

INPUT: Any idea what IC50 was measured for N=C(N)[Se]CCc1ccc(CC[Se]C(=N)N)cc1 [PBISe, dihydrobromide] ?
OUTPUT: 5.3

* * *

System: WM115 melanoma cell line
Experiment: MTS cell viability assay, WM115
Settings: read-out: Inhibition Cancer Cells IC50, WM115 (Table III); WM115 melanoma; 24 h; MTS
REPORTED_METRIC: IC50

INPUT: Any idea what IC50 was measured for Br.Br.N=C(N)SCCc1ccc(CCSC(=N)N)cc1 [PBIT, dihydrobromide, reference compound] ?
OUTPUT: > 100 µM

* * *

Test system: colon adenocarcinoma cells (Caco-2, HT 29, HCT 116, SW 480)
Test: MTS viability, four colon cancer cell lines (summary)
Type: cell-based
Settings: read-out: IC50 range, four colon cancer cell lines
Counter-ions that a name gives are not always drawn.
REPORTED_METRIC: IC50

INPUT: Any idea what IC50 was measured for N=C(N)[Se]CCc1ccc(CC[Se]C(=N)N)cc1 [PBISe, dihydrobromide] ?
OUTPUT: 2.4 to 5.55 µM

* * *

Test system: HCT-116 colorectal adenocarcinoma cells
Assay: MTS cell viability assay, HCT-116
Format: cell-based
Conditions: Homo sapiens; HCT-116; 24-72 hours; MTS; read-out: Inhibition of growth IC50, HCT-116 (Table II)
Where a name gives a salt, the structure may show the parent alone.
REPORTED_METRIC: IC50 (µM)
Write the value in µM as a bare number.

INPUT: Please state recorded IC50 (tested on HCT-116 colorectal adenocarcinoma cells) of N=C(N)[Se]CCc1ccc(CC[Se]C(=N)N)cc1 [PBISe, dihydrobromide]
OUTPUT: 4.72

* * *

Tested on: A549, Caco-2, HT-1080, PC-3, OVCAR-3, MDA-MB-231, WM115
Assay: MTS viability, all cancer cell lines tested (summary)
Format: cell-based, human
Settings: Table III; read-out: concentration decreasing cell viability by 50% (IC50), cancer cell lines of Table III
REPORTED_METRIC: IC50

INPUT: Any idea what IC50 was measured for Br.Br.N=C(N)SCCc1ccc(CCSC(=N)N)cc1 [PBIT, dihydrobromide, reference compound] ?
OUTPUT: > 100 µM
